Experiment: in vivo
Parameters: species or system Sprague-Dawley male rats
Details: rat, 15 mg/kg, Concentration
Structures can show the parent of a compound that is named as a salt.
Measured Attribute: concentration at 2 h (ng/mL)

Compound: CCN(CC)CCNC(=O)c1cc(Cl)c(N)cc1OC [metoclopramide hydrochloride]
Reported Measurement: 1100

====

Test: 4-way crossover study of metoclopramide hydrochloride (nasal, oral, intramuscular) in volunteer human subjects
Type: in vivo
Conditions: human, in vivo, po, Time to Peak
Structures can show the parent of a compound that is named as a salt.
Measured Attribute: Tmax (h)

Compound: CCN(CC)CCNC(=O)c1cc(Cl)c(N)cc1OC [metoclopramide hydrochloride]
Reported Measurement: 1.62
